- Test system: Escherichia coli
- Test Method Notes: Antibacterial activity against Escherichia coli ATCC 25922 assessed as diameter of inhibition zone at 1 mg/ml after 24 hrs by agar well diffusion method
- Type: functional
- Test Context: ATCC 25922, 24 h, read-out: DIZ
Experimental Readout: zone of inhibition at 1000 µg/mL (mm)
Provide the reading as a plain figure in mm.

Below, each entry is followed by its recorded zone of inhibition at 1000 µg/mL result.
Ask | May I ask what zone of inhibition at 1000 µg/mL has been recorded for `O=C(O)CNC(=O)c1ccc(NC(=S)Nc2ccc(S(=O)(=O)Nc3nccs3)cc2)cc1` ?
Reply | 0

Ask | // lookup zone of inhibition at 1000 µg/mL for `CCOc1ccc(NC(=O)c2ccccc2NC(=S)Nc2ccc(C(=O)NCC(=O)O)cc2)cc1`
Reply | 0

// next entry
Ask | # query: zone of inhibition at 1000 µg/mL of entry `O=C(O)CNC(=O)c1ccc(NC(=S)Nc2ccccc2)cc1`
Reply | 19

----------
- System: Escherichia coli
- Test Method Notes: Antibacterial activity against Escherichia coli ATCC 25922 assessed as diameter of inhibition zone at 1 mg/ml after 24 hrs by agar well diffusion method
- Assay type: functional
- Test Context: ATCC 25922, 24 h, read-out: DIZ
A collection of compounds and their measured zone of inhibition at 1000 µg/mL
Answer format: numeric, mm implied, no suffix.

Worked cases, answers included:
Ask | Report zone of inhibition at 1000 µg/mL for `CC(=O)NS(=O)(=O)c1ccc(NC(=S)Nc2ccc(C(=O)NCC(=O)O)cc2)cc1` please.
Reply | 0

Ask | Look at this compound and give its reported zone of inhibition at 1000 µg/mL. `O=C(O)CNC(=O)c1ccc(NC(=S)NNC(=O)c2ccncc2)cc1`
Reply | 0

Ask | Value lookup for zone of inhibition at 1000 µg/mL; key = `Cc1ccc(NC(=S)Nc2ccc(C(=O)NCC(=O)O)cc2)cc1`
Reply | 9

***
Ask | Entry under review: `N=C(N)NS(=O)(=O)c1ccc(NC(=S)Nc2ccc(C(=O)NCC(=O)O)cc2)cc1` . Reported zone of inhibition at 1000 µg/mL?
Reply | 0

Ask | Consider the compound `O=C(O)CNC(=O)c1ccc(NC(=S)Nc2cccc(Br)c2)cc1` and give its measured zone of inhibition at 1000 µg/mL.
Reply | 27

----------
Here, each record is paired with measured zone of inhibition at 1000 µg/mL data.
- Test system: Bacillus subtilis
- Test Method Notes: Antibacterial activity against Bacillus subtilis ATCC 6633 assessed as diameter of inhibition zone at 1 mg/ml after 24 hrs by agar well diffusion method
- Assay type: functional
- Test Context: ATCC 6633, 24 h, read-out: DIZ
Answer in mm, number only, no unit symbol.

Worked cases, answers included:
Ask | Return reported zone of inhibition at 1000 µg/mL; argument: `O=C(O)CNC(=O)c1ccc(NC(=S)Nc2ccc(S(=O)(=O)Nc3ccccn3)cc2)cc1`
Reply | 12

Ask | Which zone of inhibition at 1000 µg/mL is reported for this compound? `O=C(O)CNC(=O)c1ccc(NC(=S)NNC(=O)c2ccccc2)cc1`
Reply | 12

Ask | Query (compound): `O=C(O)CNC(=O)c1ccc(NC(=S)Nc2ccccc2)cc1` ; field requested: zone of inhibition at 1000 µg/mL
Reply | 17

New cases:
Ask | Would you kindly share the measured zone of inhibition at 1000 µg/mL for `O=C(O)CNC(=O)c1ccc(NC(=S)Nc2cccc(Br)c2)cc1` ?
Reply | 30

Ask | What zone of inhibition at 1000 µg/mL value was documented for this compound, `O=C(O)CNC(=O)c1ccc(NC(=S)Nc2ccccc2C(=O)Nc2cccc(C(F)(F)F)c2)cc1` ?
Reply | 16

Ask | Item under review: `O=C(O)CNC(=O)c1ccc(NC(=S)Nc2c3ccccc3nc3ccccc23)cc1` . Reported zone of inhibition at 1000 µg/mL?
Reply | 12

Ask | Can you share its zone of inhibition at 1000 µg/mL? I mean this compound: `O=C(O)CNC(=O)c1ccc(NC(=S)Nc2cccc(F)c2)cc1`
Reply | 18

Ask | Need zone of inhibition at 1000 µg/mL, item `O=C(O)CNC(=O)c1ccc(NC(=S)Nc2ccc(C(=O)NCC(=O)O)cc2)cc1`
Reply | 18

----------
- Test system: Bacillus subtilis
- Test Method Notes: Antibacterial activity against Bacillus subtilis ATCC 6633 assessed as diameter of inhibition zone at 1 mg/ml after 24 hrs by agar well diffusion method
- Assay type: functional
- Test Context: ATCC 6633, 24 h, read-out: DIZ
Experimental Readout: zone of inhibition at 1000 µg/mL (mm)
State the answer as a number, implicitly in mm.

Ask | Value lookup for zone of inhibition at 1000 µg/mL; key = `Cc1ccc(NC(=S)Nc2ccc(C(=O)NCC(=O)O)cc2)cc1`
Reply | 0

Ask | Quick check: zone of inhibition at 1000 µg/mL of `CCCCNC(=S)Nc1ccc(C(=O)NCC(=O)O)cc1` ?
Reply | 13

Ask | So what's the measured zone of inhibition at 1000 µg/mL for this one? `N=C(N)NS(=O)(=O)c1ccc(NC(=S)Nc2ccc(C(=O)NCC(=O)O)cc2)cc1`
Reply | 16

Ask | Report zone of inhibition at 1000 µg/mL for `O=C(O)CNC(=O)c1ccc(NC(=S)Nc2ccc(NC(=S)Nc3ccc(C(=O)NCC(=O)O)cc3)cc2)cc1` please.
Reply | 31

Attention now shifts to the item below.
Ask | Value lookup for zone of inhibition at 1000 µg/mL; key = `CCCCCCNC(=S)Nc1ccc(C(=O)NCC(=O)O)cc1`
Reply | 9

----------
- Tested on: Staphylococcus aureus
- Test Method Notes: Antibacterial activity against Staphylococcus aureus ATCC 29213 assessed as diameter of inhibition zone at 1 mg/ml after 24 hrs by agar well diffusion method
- Format: functional
- Test Context: ATCC 29213, 24 h, read-out: DIZ
Experimental Readout: zone of inhibition at 1000 µg/mL (mm)
The figure you give is taken to be in mm; do not add the unit.

Ask | For the molecule shown here, `O=C(O)CNC(=O)c1ccc(NC(=S)NNC(=O)c2ccncc2)cc1` , give the reported zone of inhibition at 1000 µg/mL.
Reply | 0

Ask | Using the record for `O=C(O)CNC(=O)c1ccc(NC(=S)Nc2ccc(F)cc2)cc1` , report its zone of inhibition at 1000 µg/mL.
Reply | 20

Ask | Please look up its zone of inhibition at 1000 µg/mL: `O=C(O)CNC(=O)c1ccc(NC(=S)NNS(=O)(=O)c2ccccc2)cc1`
Reply | 32

Ask | GET /values?readout=zone of inhibition at 1000 µg/mL&item= `O=C(O)CNC(=O)c1ccc(NC(=S)Nc2c3ccccc3nc3ccccc23)cc1`
Reply | 20

Ask | Given the entry `Cc1ccc(NC(=S)Nc2ccc(C(=O)NCC(=O)O)cc2)cc1` , report its measured zone of inhibition at 1000 µg/mL.
Reply | 0

Ask | // lookup zone of inhibition at 1000 µg/mL for `O=C(O)CNC(=O)c1ccc(NC(=S)Nc2cccc(F)c2)cc1`
Reply | 20

Ask | Find the recorded zone of inhibition at 1000 µg/mL belonging to `O=C(O)CNC(=O)c1ccc(NC(=S)Nc2ccccc2)cc1` and report it.
Reply | 0

Ask | Form field: reported zone of inhibition at 1000 µg/mL of `O=C(O)CNC(=O)c1ccc(NC(=S)Nc2ccccc2C(=O)Nc2cccc(C(F)(F)F)c2)cc1`
Reply | 0

***
Ask | // returns reported zone of inhibition at 1000 µg/mL for input `O=C(O)CNC(=O)c1ccc(NC(=S)Nc2ccc(S(=O)(=O)Nc3ncccn3)cc2)cc1`
Reply | 32

Ask | Give the measured zone of inhibition at 1000 µg/mL of `NS(=O)(=O)c1ccc(NC(=S)Nc2ccc(C(=O)NCC(=O)O)cc2)cc1` .
Reply | 14

Ask | Dear colleague, I am looking for the recorded zone of inhibition at 1000 µg/mL of the following molecule: `O=C(O)CNC(=O)c1ccc(NC(=S)Nc2ccc(NC(=S)Nc3ccc(C(=O)NCC(=O)O)cc3)cc2)cc1`
Reply | 20

Ask | Form field: reported zone of inhibition at 1000 µg/mL of `Nc1n[nH]c(NC(=S)Nc2ccc(C(=O)NCC(=O)O)cc2)c1/N=N/c1ccc(Cl)cc1`
Reply | 28

Ask | Data request, read-out zone of inhibition at 1000 µg/mL, for `CCOc1ccc(NC(=O)c2ccccc2NC(=S)Nc2ccc(C(=O)NCC(=O)O)cc2)cc1`
Reply | 20

Ask | Please report the recorded zone of inhibition at 1000 µg/mL for `CC(=O)NS(=O)(=O)c1ccc(NC(=S)Nc2ccc(C(=O)NCC(=O)O)cc2)cc1` .
Reply | 15

Ask | Returns the measured zone of inhibition at 1000 µg/mL for the input molecule. Input: `O=C(O)CNC(=O)c1ccc(NC(=S)NNC(=O)c2ccccc2)cc1`
Reply | 22

Ask | Entry `O=C(O)CNC(=O)c1ccc(NC(=S)Nc2ccc(C(=O)NCC(=O)O)cc2)cc1` : reported zone of inhibition at 1000 µg/mL = ?
Reply | 22

Ask | Recorded zone of inhibition at 1000 µg/mL for `O=C(O)CNC(=O)c1ccc(NC(=S)Nc2ccc(S(=O)(=O)Nc3ccccn3)cc2)cc1` , please?
Reply | 23

Ask | I would be grateful if you could share the reported zone of inhibition at 1000 µg/mL for `O=C(O)CNC(=O)c1ccc(NC(=S)Nc2ccc(S(=O)(=O)Nc3nccs3)cc2)cc1` .
Reply | 0

Ask | Fill in: zone of inhibition at 1000 µg/mL of `N=C(N)NS(=O)(=O)c1ccc(NC(=S)Nc2ccc(C(=O)NCC(=O)O)cc2)cc1` is ___
Reply | 0

Ask | Field request: zone of inhibition at 1000 µg/mL | item: `CCCCNC(=S)Nc1ccc(C(=O)NCC(=O)O)cc1`
Reply | 22
